Where do these numbers come from? They come from patent US10174202B2.

test: Emission spectra and fluorescence quantum yield; type: physicochemical; settings: in acetonitrile
Counter-ions that a name gives are not always drawn.

compound	measurement unit	Stokes shift
COP(=O)([O-])C1=c2cc3c4c(c2Oc2c1cc1c5c2CCCN5CCC1)CCC[N+]=4CCC3	nm	27
COP(=O)(C1=c2cc3c4c(c2Oc2c1cc1c5c2CCCN5CCC1)CCC[N+]=4CCC3)N(C(C)C)C(C)C (stereo not shown) [Compound 17, trifluoroacetate]	nm	30
CC(C)OP(=O)(OC(C)C)c1c2ccc(N(C)C)cc2[o+]c2cc(N(C)C)ccc12.O=C([O-])C(F)(F)F	nm	32
CCOP(=O)(c1c2ccc(=[N+](C)C)cc-2oc2cc(N(C)C)ccc12)N(C)CCC(=O)O.O=C([O-])C(F)(F)F (stereo not shown)	nm	37
CC[N+](CC)=c1ccc2c(P(=O)(OC)OC)c3c(oc-2c1)-c1ccc(N(C)C)cc1CC3.O=C([O-])C(F)(F)F	nm	56
COP(=O)(c1c2ccc(N(C)C)cc2[o+]c2cc(N(C)C)ccc12)N(C(C)C)C(C)C.O=C([O-])C(F)(F)F (stereo not shown)	nm	33
CN(C)c1ccc2c(P(=O)(c3ccccc3)c3ccccc3)c3ccc(N(C)C)cc3[o+]c2c1.O=C([O-])C(F)(F)F	nm	26
CCOP(=O)(C1=c2cc3c4c(c2Oc2c1cc1c5c2CCCN5CCC1)CCC[N+]=4CCC3)N(C)CCC(=O)O (stereo not shown) [Compound 19, trifluoroacetate]	nm	34
C=CCOC(=O)CCCOP(=O)(OC)[c+]1c2ccc(N(C)C)cc2oc2cc(N(C)C)ccc21 (stereo not shown)	nm	32
CCOP(=O)(CC(=O)[O-])c1c2ccc(N(C)C)cc2[o+]c2cc(N(C)C)ccc12 (stereo not shown)	nm	31
C=CCOP(=O)(C1=c2cc3c(cc2C(C)(C)c2cc4c(cc21)CCCN4CCOC)=[N+](CCOC)CCC3)N(C(C)C)C(C)C (stereo not shown) [Compound 26, trifluoroacetate]	nm	88
